# Test System: T1, cynoSIRPα (NP_001271679), Extracellular Domain + His-Tag (cynomolgus monkey)
# T1 construct: also called CySIRPα NP_001271679; not shown: His-Tag
# T1 chain: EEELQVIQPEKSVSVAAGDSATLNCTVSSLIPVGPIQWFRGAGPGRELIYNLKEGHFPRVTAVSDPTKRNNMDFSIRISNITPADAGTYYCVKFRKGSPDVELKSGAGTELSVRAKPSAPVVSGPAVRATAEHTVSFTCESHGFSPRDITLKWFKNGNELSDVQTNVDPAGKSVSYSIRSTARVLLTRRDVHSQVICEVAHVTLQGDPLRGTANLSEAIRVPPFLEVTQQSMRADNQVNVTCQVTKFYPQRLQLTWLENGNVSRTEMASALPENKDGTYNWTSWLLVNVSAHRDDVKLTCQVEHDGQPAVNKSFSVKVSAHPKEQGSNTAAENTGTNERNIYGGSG
# Test Method Notes: SPR, antibody captured on Protein A/G, ECD-His analyte, 1:1 fit
Reported pKd values for a set of binders
# pKd = -log10(concentration in molar units)

>>> result_number("Antibody E2 (antibody, human IgG1, kappa, L234A L235A, V domains shown) VH: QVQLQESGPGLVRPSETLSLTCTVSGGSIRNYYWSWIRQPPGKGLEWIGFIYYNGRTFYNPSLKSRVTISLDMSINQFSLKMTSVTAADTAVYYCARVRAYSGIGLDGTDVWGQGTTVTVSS VL: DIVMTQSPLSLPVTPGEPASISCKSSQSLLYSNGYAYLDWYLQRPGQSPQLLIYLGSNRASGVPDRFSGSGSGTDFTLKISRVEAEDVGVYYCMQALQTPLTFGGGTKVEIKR")
7.68
>>> result_number("Antibody E5 (antibody, human IgG1, kappa, L234A L235A, V domains shown) VH: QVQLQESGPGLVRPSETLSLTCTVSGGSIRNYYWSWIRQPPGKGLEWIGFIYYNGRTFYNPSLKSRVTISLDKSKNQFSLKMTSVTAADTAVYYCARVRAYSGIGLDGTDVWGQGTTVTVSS VL: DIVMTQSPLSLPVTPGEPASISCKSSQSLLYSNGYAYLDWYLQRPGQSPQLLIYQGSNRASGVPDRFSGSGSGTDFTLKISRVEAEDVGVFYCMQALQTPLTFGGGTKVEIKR")
7.42
>>> result_number("Antibody E10 (antibody, human IgG1, kappa, L234A L235A, V domains shown) VH: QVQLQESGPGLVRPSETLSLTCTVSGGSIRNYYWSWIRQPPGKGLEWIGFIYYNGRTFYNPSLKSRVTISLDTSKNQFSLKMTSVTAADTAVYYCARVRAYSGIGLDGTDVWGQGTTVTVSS VL: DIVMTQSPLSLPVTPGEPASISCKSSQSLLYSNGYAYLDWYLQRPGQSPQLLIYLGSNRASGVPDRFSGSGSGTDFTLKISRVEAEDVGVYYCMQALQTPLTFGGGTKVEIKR")
7.60
>>> result_number("Antibody E4 (antibody, human IgG1, kappa, L234A L235A, V domains shown) VH: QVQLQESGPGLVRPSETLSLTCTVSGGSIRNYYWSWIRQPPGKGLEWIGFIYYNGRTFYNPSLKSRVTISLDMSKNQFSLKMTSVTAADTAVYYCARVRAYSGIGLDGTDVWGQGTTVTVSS VL: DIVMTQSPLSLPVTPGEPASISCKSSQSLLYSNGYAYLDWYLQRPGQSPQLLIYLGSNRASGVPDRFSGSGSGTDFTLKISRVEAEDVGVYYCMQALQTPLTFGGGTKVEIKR")
7.68

// moving on: another record for pKd
Challenge: Using the record for Antibody E1 (antibody, human IgG1, kappa, L234A L235A, V domains shown) VH: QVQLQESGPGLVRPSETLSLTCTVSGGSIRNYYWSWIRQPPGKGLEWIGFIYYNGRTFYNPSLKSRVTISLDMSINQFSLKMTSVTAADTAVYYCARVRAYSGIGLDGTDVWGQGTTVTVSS VL: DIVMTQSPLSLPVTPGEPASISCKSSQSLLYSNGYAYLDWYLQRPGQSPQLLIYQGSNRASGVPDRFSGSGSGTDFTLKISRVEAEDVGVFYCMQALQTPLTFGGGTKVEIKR , report its pKd.
Response given: 7.75

// data source = patent US20230012273A1
